- EXPERIMENTAL_TARGET: panel of 442 kinases (Homo sapiens, UniProt Q9NRP7)
- Construct: purchased Ambit Biosciences (scanMAXX KINOMEscan)
- Sequence (Q9NRP7 whole entry): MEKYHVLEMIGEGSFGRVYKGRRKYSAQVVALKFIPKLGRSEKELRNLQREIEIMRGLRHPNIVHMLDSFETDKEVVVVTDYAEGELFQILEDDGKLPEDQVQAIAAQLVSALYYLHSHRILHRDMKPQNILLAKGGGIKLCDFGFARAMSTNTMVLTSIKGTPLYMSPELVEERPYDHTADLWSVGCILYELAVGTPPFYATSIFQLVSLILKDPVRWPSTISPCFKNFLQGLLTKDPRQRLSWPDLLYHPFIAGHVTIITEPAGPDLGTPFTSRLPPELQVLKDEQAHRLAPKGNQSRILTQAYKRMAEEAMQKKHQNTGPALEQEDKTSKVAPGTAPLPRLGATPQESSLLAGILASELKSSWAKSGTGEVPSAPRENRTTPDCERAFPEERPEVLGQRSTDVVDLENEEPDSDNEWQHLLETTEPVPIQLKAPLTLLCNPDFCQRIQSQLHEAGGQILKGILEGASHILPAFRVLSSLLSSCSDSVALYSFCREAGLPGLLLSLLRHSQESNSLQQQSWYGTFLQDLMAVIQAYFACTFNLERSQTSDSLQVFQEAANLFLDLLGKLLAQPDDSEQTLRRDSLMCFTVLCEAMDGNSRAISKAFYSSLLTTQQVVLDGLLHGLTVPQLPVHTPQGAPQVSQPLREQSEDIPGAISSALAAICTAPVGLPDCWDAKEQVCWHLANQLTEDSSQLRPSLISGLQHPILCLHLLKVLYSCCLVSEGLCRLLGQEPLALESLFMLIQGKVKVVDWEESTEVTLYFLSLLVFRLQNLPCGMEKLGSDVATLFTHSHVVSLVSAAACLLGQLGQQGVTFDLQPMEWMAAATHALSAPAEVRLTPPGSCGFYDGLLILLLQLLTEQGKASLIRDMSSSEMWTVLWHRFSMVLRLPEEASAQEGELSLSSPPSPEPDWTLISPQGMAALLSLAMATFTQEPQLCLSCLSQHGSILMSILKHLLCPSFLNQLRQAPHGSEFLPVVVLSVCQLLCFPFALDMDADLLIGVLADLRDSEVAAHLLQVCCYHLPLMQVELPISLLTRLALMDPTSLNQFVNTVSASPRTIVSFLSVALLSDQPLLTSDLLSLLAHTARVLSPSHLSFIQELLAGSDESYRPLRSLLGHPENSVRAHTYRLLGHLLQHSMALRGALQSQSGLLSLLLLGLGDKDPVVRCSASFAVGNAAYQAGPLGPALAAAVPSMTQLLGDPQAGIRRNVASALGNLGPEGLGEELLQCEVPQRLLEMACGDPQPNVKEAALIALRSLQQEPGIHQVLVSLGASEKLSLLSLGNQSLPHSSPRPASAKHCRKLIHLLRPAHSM
- ASSAY_SUMMARY: biochemical
- Format: binding
- EXPERIMENTAL_CONDITIONS: kinase STK36; 1 µM; read-out: STK36 (% of control at 1 µM)
ASSAY_METRIC: remaining activity at 1 µM (%)
Express the result in % but write the number alone.

INSERT INTO assay_data (smiles_code, assay_metric, measured_result) VALUES
  ('Nc1cc(C(F)(F)F)c(-c2cc(N3CCOCC3)nc(N3CCOCC3)n2)cn1', 'remaining activity at 1 µM', 100),
  ('COc1ncc(-c2ccc3nccc(-c4ccnnc4)c3c2)cc1NS(=O)(=O)c1ccc(F)cc1F', 'remaining activity at 1 µM', 85),
  ('FC(F)c1nc2ccccc2n1-c1nc(N2CCOCC2)nc(N2CCOCC2)n1', 'remaining activity at 1 µM', 95);

Then this compound:
query: Please look at this compound and report its remaining activity at 1 µM: `Cn1c(=O)n(-c2ccc(C(C)(C)C#N)cc2)c2c3cc(-c4cnc5ccccc5c4)ccc3ncc21`
result: 89

###

- EXPERIMENTAL_TARGET: panel of 442 kinases (Homo sapiens, UniProt O15264)
- Construct: purchased Ambit Biosciences (scanMAXX KINOMEscan)
- Sequence (O15264 whole entry): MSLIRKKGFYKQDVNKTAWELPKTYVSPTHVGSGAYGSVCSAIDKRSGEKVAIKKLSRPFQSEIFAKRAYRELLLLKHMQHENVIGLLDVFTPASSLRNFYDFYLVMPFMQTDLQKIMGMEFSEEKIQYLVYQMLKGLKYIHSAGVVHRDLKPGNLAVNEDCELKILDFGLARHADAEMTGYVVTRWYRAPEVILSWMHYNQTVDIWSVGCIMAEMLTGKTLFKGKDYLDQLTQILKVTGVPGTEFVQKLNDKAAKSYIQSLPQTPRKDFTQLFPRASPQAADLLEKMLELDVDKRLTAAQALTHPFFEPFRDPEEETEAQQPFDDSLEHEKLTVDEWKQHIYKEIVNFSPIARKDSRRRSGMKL
- ASSAY_SUMMARY: biochemical
- Type: binding
- EXPERIMENTAL_CONDITIONS: kinase p38-delta; 1 µM; read-out: % of control at 1 µM
Reported remaining activity at 1 µM values for a set of compounds

Past entries and their recorded results:
INSERT INTO results (smiles_code, measured_result) VALUES
  ('Nc1cc(C(F)(F)F)c(-c2cc(N3CCOCC3)nc(N3CCOCC3)n2)cn1', '73%'),
  ('FC(F)c1nc2ccccc2n1-c1nc(N2CCOCC2)nc(N2CCOCC2)n1', '100%'),
  ('COc1ncc(-c2ccc3nccc(-c4ccnnc4)c3c2)cc1NS(=O)(=O)c1ccc(F)cc1F', '94%');

query: Given `Cn1c(=O)n(-c2ccc(C(C)(C)C#N)cc2)c2c3cc(-c4cnc5ccccc5c4)ccc3ncc21` , respond with its remaining activity at 1 µM.
result: 56%

###

# maps each entry to its remaining activity at 1 µM
- EXPERIMENTAL_TARGET: panel of 442 kinases (Homo sapiens, UniProt Q9NY57)
- Construct: purchased Ambit Biosciences (scanMAXX KINOMEscan)
- Sequence (Q9NY57 whole entry): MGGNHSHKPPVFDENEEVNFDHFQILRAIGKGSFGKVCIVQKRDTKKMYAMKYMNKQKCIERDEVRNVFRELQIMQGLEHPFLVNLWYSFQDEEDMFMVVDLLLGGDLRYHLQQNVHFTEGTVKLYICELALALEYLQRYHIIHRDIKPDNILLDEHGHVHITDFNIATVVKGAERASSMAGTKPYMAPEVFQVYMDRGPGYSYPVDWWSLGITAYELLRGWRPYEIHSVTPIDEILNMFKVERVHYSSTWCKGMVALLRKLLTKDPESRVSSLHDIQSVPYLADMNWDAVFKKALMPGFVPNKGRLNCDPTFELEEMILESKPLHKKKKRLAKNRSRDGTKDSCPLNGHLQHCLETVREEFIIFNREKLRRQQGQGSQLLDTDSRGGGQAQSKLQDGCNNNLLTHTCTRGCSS
- ASSAY_SUMMARY: biochemical
- Type: binding
- EXPERIMENTAL_CONDITIONS: kinase YANK2; 1 µM; read-out: YANK2 (% of control at 1 µM)
Quick note: give the figure in %, leave out the unit.

Field: example entries. Status: answers known.
INSERT INTO results (smiles_code, assay_metric, measured_result) VALUES
  ('Cn1c(=O)n(-c2ccc(C(C)(C)C#N)cc2)c2c3cc(-c4cnc5ccccc5c4)ccc3ncc21', 'remaining activity at 1 µM', 96),
  ('COc1ncc(-c2ccc3nccc(-c4ccnnc4)c3c2)cc1NS(=O)(=O)c1ccc(F)cc1F', 'remaining activity at 1 µM', 100),
  ('Nc1cc(C(F)(F)F)c(-c2cc(N3CCOCC3)nc(N3CCOCC3)n2)cn1', 'remaining activity at 1 µM', 100);

Here is another compound to look at.
query: Write down the reported remaining activity at 1 µM (system: panel of 442 kinases (Homo sapiens, UniProt Q9NY57)) of `FC(F)c1nc2ccccc2n1-c1nc(N2CCOCC2)nc(N2CCOCC2)n1`
result: 100
